Source of measurements: ChEMBL document CHEMBL1122090

# reported Relative inhibition index; entries follow
- Assay Overview: Relative inhibition index was the ratio between AK-M and AK III
- Format: functional

{"Compound": "CC1(C)O[C@@H]2[C@H](O1)[C@@H](COP(=O)(O)O)O[C@H]2n1cnc2c(N)ncnc21", "Relative inhibition index": 5.7}
{"Compound": "Nc1ncnc2c1ncn2[C@@H]1O[C@H](CCP(=O)(O)O)[C@@H](O)[C@H]1O", "Relative inhibition index": 3.9}
{"Compound": "CNc1nc(N)c2ncn([C@@H]3O[C@H](COP(=O)(O)O)[C@@H](O)[C@H]3O)c2n1", "Relative inhibition index": 9.1}
{"Compound": "C=CC[C@]1(COP(=O)(O)O)OC(n2cnc3c(N)ncnc32)[C@H](O)[C@@H]1O (some centres undefined)", "Relative inhibition index": 8.1}
{"Compound": "CO[C@@H]1[C@H](O)[C@@H](COP(=O)(O)O)O[C@H]1n1cnc2c(N)ncnc21", "Relative inhibition index": 8.2}
{"Compound": "Nc1nc(Cl)nc2c1ncn2[C@@H]1O[C@H](COP(=O)(O)O)[C@@H](O)[C@H]1O", "Relative inhibition index": 4.2}
{"Compound": "Nc1ncnc2c1ncn2[C@@H]1O[C@H](COS(=O)(=O)O)[C@@H](O)[C@H]1O", "Relative inhibition index": 1.1}
{"Compound": "CCNc1nc(N)c2ncn([C@@H]3O[C@H](COP(=O)(O)O)[C@@H](O)[C@H]3O)c2n1", "Relative inhibition index": 9.3}
{"Compound": "C[C@H](OP(=O)(O)O)[C@H]1OC(n2cnc3c(N)ncnc32)[C@H](O)[C@@H]1O (some centres undefined)", "Relative inhibition index": 2.8}

====

- Assayed Target: GTP:AMP phosphotransferase AK3, mitochondrial (Rattus norvegicus) (UniProt P29411)
- Sequence (P29411 whole entry): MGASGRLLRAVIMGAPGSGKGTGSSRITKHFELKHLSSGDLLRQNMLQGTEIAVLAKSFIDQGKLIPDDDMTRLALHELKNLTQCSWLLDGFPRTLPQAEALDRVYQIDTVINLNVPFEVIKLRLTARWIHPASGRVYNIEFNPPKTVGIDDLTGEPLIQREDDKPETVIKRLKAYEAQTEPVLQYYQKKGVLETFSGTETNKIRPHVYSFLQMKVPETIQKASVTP
- Assay Overview: Relative Vmax value to rat adenylate kinase III.

{"Compound": "Nc1ncnc2c1ncn2C(CO)OC(CO)COP(=O)(O)O (stereo unspecified)", "Relative Vmax": 0}
{"Compound": "C[C@@H](OP(=O)(O)O)[C@H]1OC(n2cnc3c(N)ncnc32)[C@H](O)[C@@H]1O (stereo partly specified)", "Relative Vmax": "> 0"}
{"Compound": "CC[C@H](OP(=O)(O)O)[C@H]1OC(n2cnc3c(N)ncnc32)[C@H](O)[C@@H]1O (stereo partly specified)", "Relative Vmax": "> 0"}
{"Compound": "CC1O[C@@H]2[C@H](O1)[C@@H](COP(=O)(O)O)O[C@H]2n1cnc2c(N)ncnc21 (stereo partly specified)", "Relative Vmax": 0}
{"Compound": "CCSc1nc2c(N)ncnc2n1C1O[C@H](COP(=O)(O)O)[C@@H](O)[C@H]1O (stereo partly specified)", "Relative Vmax": 0}
{"Compound": "CNc1nc(N)c2ncn([C@@H]3O[C@H](COP(=O)(O)O)[C@@H](O)[C@H]3O)c2n1", "Relative Vmax": 10}
{"Compound": "Nc1nc(N)c2ncn([C@@H]3O[C@H](COP(=O)(O)O)[C@@H](O)[C@H]3O)c2n1", "Relative Vmax": 24}
{"Compound": "C[C@@H]1[C@H](O)[C@@H](COP(=O)(O)O)O[C@H]1n1cnc2c(N)ncnc21", "Relative Vmax": 21}
{"Compound": "Nc1ncnc2c1ncn2[C@@H]1O[C@H](COP(=O)(O)O)[C@@H](O)[C@H]1O", "Relative Vmax": 100}
{"Compound": "CC1(C)O[C@@H]2[C@H](O1)[C@@H](COP(=O)(O)O)O[C@H]2n1cnc2c(N)ncnc21", "Relative Vmax": 0}
{"Compound": "CCC1O[C@@H]2[C@H](O1)[C@@H](COP(=O)(O)O)O[C@H]2n1cnc2c(N)ncnc21 (stereo partly specified)", "Relative Vmax": 0}
